- Tested on: MCF7 breast
- test: NCI-60 one-dose screen, 48 h
- assay_context: 10 µM unless noted
This is part of a sample that, as a whole, favours compounds with a hit. Of some 83,000 tested, about 20% had one in any assay. Activity calls are given as the source filed them. How the source made its calls: active means growth percent below 10; inactive means the rest.
Result category, one only: True for active, False for inactive

Consider the worked cases shown below.
Cc1nc2cnc(N)c(C#Cc3cncc(C(=O)Nc4ccc(CN5CCN(C)CC5)c(C(F)(F)F)c4)c3)c2nc1C	True
Nc1cc2c(cc1Br)-c1cc(Cl)ccc1C2=O	False
COc1cc(-c2nc3sccn3c2-c2ccnc(NCCCNS(=O)(=O)c3ccc(F)cc3)n2)ccc1F	False

Request: Recorded call for "COc1cc2oc(-c3ccc(O)cc3)cc(=O)c2c(O)c1-c1c(OC)cc(O)c2c(=O)cc(-c3ccc(O)cc3)oc12" ?
Response: False

Request: What outcome does the record of this test show for "CCCCC[C@H](O)C/C=C1/C(=O)C=C[C@@H]1C/C=C\CCCC(=O)OC" ?
Response: False

Request: What outcome does the record of this test show for "O=C(CSc1nccc(Nc2ccc(S(=O)(=O)Nc3nccs3)cc2)n1)c1ccc(C(F)(F)F)cc1" ?
Response: False

Request: I would be grateful if you could indicate the recorded call for "COc1ccc2nc(NC(=O)c3cccnc3Nc3ccc(S(N)(=O)=O)cc3)sc2c1" .
Response: False

Request: Dear all, I need the recorded test outcome for "Nc1nn(C(=O)Nc2ccc(Cc3ccccc3)cc2)c2ccc(Cl)cc12" , thank you.
Response: False

Request: What did this assay record as the result for "O=C1c2cccc3cccc(c23)C(=O)N1Nc1nc(NC2CCCCC2)nc(N2CCOCC2)n1" ?
Response: False

Request: Per the assay record, what outcome was assigned to "COc1ccc(C(=S)N2CCN(c3cccc(C)c3)CC2)cc1OC" ?
Response: False
